- measured_target: Serine/threonine-protein kinase mTOR (Homo sapiens, UniProt P42345)
// values below are reported IC50
I only need the number, in nM, no unit after it.

Prompt: What IC50 value was documented for this molecule, Cc1nc(N)nc(-n2c(Nc3cccc(C(N)=O)c3)nc3ccccc32)n1 ?
Completion: 3900

Prompt: Try this molecule next: Nc1ncnc(-n2c(Nc3cccc(O)c3)nc3ccccc32)n1
Completion: 710

Prompt: And the next one, CNc1ncnc(-n2c(Nc3cccc(O)c3)nc3ccccc32)n1 ?
Completion: 2900

Prompt: What do you get for CNc1nc(C)nc(-n2c(Nc3cc[nH]n3)nc3ccccc32)n1 ?
Completion: 600

Prompt: Can you handle Cc1nc(N)cc(-n2c(Nc3cccc(O)c3)nc3ccccc32)n1 next?
Completion: 1200

Prompt: Now the same for Cc1nc(N)nc(-n2c(Nc3ccn(C(F)F)n3)nc3ccccc32)n1
Completion: 6500

Prompt: Similarly, Cc1nc(N)nc(-n2c(Nc3ccn[nH]3)nc3cc(F)c(F)cc32)n1 ?
Completion: 340

Prompt: Would you mind doing C#CCNc1nc(C)nc(-n2c(Nc3ccn[nH]3)nc3ccccc32)n1 as well?
Completion: 1400
